- system-tested: DAPK3 (human)
- protocol-notes: radiometric filter-binding kinase assay, Kinase HotSpot
- details: compound 0.5 µM; ATP 10 µM
observable: residual activity (%)
Write it as a number; the unit % goes unstated.

Request: Which residual activity is reported for this molecule? `CN(C)CCCn1cc(C2=C(c3c[nH]c4ccccc34)C(=O)NC2=O)c2ccccc21`
Result: 84.5

Request: Also check `COc1ccc(Cl)cc1NC(=O)Nc1cc(C)nc2ccccc12`
Result: 100

Request: Also check `Cc1cncc2cccc(S(=O)(=O)N3CCCN(C(=O)CN)C[C@H]3C)c12`
Result: 90.4

Request: Also check `O=C1c2ccccc2-c2nc3nnnn3nc21`
Result: 96.2

Request: Also check `CC(C)(C)c1cc(C=C(C#N)C#N)cc(Br)c1O`
Result: 96.4

Request: Also check `O=C1Nc2ccc(Br)cc2/C1=C\c1cc2c([nH]1)CCCC2`
Result: 92.8

Request: Also check `COc1ccc(S(=O)(=O)N(CCO)c2ccccc2CN(C)C/C=C/c2ccc(Cl)cc2)cc1`
Result: 101

Request: Also check `CS(=O)(=O)CCNCc1ccc(-c2ccc3ncnc(Nc4ccc(OCc5cccc(F)c5)c(Cl)c4)c3c2)o1`
Result: 97.4

Request: Also check `COc1cc(Nc2c(C#N)cnc3cc(OCCCN4CCN(C)CC4)c(OC)cc23)c(Cl)cc1Cl`
Result: 107

Request: Also check `COc1ccc2c(c1)/C(=C/c1cnc[nH]1)C(O)=N2`
Result: 101

Request: Also check `N#Cc1c[nH]c2c[nH]/c(=N\Cc3cccnc3)cc2/c1=N\c1ccc(F)c(Cl)c1`
Result: 101

Request: Also check `Ic1cccc(CSc2nnc(-c3ccncc3)o2)c1`
Result: 107

---

- System: PRKCQ (human), Q04759 [P330L]
- Sequence (Q04759 whole entry P330L, looked up): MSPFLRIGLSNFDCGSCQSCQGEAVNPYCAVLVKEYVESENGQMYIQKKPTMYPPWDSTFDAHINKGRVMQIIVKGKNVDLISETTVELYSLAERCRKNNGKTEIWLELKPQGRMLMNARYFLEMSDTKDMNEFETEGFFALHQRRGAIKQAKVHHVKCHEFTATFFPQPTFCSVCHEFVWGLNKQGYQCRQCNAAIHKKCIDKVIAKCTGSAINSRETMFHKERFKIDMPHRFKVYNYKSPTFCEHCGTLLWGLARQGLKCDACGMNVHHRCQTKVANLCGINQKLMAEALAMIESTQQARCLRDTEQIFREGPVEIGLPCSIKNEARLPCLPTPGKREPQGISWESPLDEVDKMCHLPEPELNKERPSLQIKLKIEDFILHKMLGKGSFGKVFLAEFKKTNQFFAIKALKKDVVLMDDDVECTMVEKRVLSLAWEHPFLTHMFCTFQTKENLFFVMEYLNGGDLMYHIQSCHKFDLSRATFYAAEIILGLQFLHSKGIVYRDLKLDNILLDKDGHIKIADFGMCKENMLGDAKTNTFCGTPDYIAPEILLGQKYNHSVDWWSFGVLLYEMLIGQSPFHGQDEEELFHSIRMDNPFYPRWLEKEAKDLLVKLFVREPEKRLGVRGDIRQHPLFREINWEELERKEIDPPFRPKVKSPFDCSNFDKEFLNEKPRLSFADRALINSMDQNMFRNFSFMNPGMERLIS
- protocol-notes: radiometric filter-binding kinase assay, Kinase HotSpot
- details: compound 0.5 µM; ATP 10 µM
compounds and their reported residual activity
Write it as a number; the unit % goes unstated.

Observe how each entry below is paired with its result.
# smi, residual activity [%]
data = [
    ("COc1cc(Nc2c(C#N)cnc3cc(OCCCN4CCN(C)CC4)c(OC)cc23)c(Cl)cc1Cl", 71.5),
    ("N/C(=N\\N=C/c1ccc(-c2cccc([N+](=O)[O-])c2)o1)N[N+](=O)[O-]", 94.6),
    ("c1ccc2c(-c3ccncc3)c[nH]c2c1", 125),
    ("COc1ccc(S(=O)(=O)N(CCO)c2ccccc2CN(C)C/C=C/c2ccc(Cl)cc2)cc1", 110),
]

Request: Which residual activity is reported for this compound? `O=c1cc(N2CCOCC2)oc2c1ccc1ccccc12`
Result: 90.6

Request: Also check `CC(C)n1cnc2c(Nc3cccc(Cl)c3)nc(NCCO)nc21`
Result: 91.4

Request: Also check `CS(=O)(=O)CCNCc1ccc(-c2ccc3ncnc(Nc4ccc(OCc5cccc(F)c5)c(Cl)c4)c3c2)o1`
Result: 72.4

Request: Also check `CN(C)S(=O)(=O)c1ccc2c(c1)/C(=C/c1cc3c([nH]1)CCCC3)C(=O)N2`
Result: 112

Request: Also check `Nc1nc(Nc2ccc(S(N)(=O)=O)cc2)nn1C(=O)c1c(F)cccc1F`
Result: 114

Request: Also check `O=C1NC(=O)C(c2cn(CCCO)c3ncccc23)=C1c1cnccn1`
Result: 81.7

---

- system-tested: RPS6KA2 KD1 KD2 (human) (UniProt Q15349)
- Sequence (Q15349 whole entry, looked up): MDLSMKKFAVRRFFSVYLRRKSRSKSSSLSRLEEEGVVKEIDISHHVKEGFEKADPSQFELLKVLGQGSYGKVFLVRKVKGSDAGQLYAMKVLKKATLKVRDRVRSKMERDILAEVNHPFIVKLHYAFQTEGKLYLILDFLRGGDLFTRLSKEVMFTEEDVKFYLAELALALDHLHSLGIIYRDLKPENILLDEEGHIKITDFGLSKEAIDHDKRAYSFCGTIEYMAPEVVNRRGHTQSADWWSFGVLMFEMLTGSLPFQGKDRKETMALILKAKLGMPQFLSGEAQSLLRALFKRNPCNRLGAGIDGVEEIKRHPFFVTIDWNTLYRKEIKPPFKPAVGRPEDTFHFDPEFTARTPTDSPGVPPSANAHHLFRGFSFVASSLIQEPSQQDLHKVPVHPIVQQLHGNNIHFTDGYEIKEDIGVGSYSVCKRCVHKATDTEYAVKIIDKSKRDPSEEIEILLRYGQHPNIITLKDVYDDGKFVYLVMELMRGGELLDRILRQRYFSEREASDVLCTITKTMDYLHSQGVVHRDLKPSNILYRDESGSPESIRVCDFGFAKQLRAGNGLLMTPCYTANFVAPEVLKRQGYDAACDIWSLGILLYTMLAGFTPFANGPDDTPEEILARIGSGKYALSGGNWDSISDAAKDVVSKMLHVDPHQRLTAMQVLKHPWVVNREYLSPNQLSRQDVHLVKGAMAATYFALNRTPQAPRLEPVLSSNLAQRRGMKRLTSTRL
- protocol-notes: radiometric filter-binding kinase assay, Kinase HotSpot
- details: compound 0.5 µM; ATP 10 µM
Each entry belongs to exactly one class, chosen by where its residual activity falls: low: < 20%; medium: ≥ 20% and < 90%; high: ≥ 90%

Below, 8 compounds whose answers are already recorded.
# smi, assigned-category
data = [
    ("COc1ccc2c(c1)c(C1=C(c3c[nH]c4ccccc34)C(=O)NC1=O)cn2CCCN(C)C", "low"),
    ("CS(=O)(=O)CCNCc1ccc(-c2ccc3ncnc(Nc4ccc(OCc5cccc(F)c5)c(Cl)c4)c3c2)o1", "medium"),
    ("Cn1c2ccccc2c2c3c(c4c5ccccc5n(CCC#N)c4c21)CNC3=O", "low"),
    ("CN(C)CCCn1cc(C2=C(c3c[nH]c4ccccc34)C(=O)NC2=O)c2ccccc21", "low"),
    ("NC(=O)c1cccc(-c2cc(Nc3ccc(OC(F)(F)F)cc3)ncn2)c1", "high"),
    ("CCCCc1c(-c2ccc(OC)cc2)[nH]c2nccnc12", "high"),
    ("N#C/C(=C\\c1ccc(O)c(O)c1)C(=O)NCc1ccccc1", "high"),
    ("COc1cc(Nc2c(C#N)cnc3cc(OCCCN4CCN(C)CC4)c(OC)cc23)c(Cl)cc1Cl", "medium"),
]

# next compound below
Request: Assign a bin to `O=C(c1cc2cc(O)ccc2[nH]1)c1cc2cc(O)ccc2[nH]1`
Result: medium

---

- system-tested: UniProt Q8TD19
- Sequence (Q8TD19 whole entry, looked up): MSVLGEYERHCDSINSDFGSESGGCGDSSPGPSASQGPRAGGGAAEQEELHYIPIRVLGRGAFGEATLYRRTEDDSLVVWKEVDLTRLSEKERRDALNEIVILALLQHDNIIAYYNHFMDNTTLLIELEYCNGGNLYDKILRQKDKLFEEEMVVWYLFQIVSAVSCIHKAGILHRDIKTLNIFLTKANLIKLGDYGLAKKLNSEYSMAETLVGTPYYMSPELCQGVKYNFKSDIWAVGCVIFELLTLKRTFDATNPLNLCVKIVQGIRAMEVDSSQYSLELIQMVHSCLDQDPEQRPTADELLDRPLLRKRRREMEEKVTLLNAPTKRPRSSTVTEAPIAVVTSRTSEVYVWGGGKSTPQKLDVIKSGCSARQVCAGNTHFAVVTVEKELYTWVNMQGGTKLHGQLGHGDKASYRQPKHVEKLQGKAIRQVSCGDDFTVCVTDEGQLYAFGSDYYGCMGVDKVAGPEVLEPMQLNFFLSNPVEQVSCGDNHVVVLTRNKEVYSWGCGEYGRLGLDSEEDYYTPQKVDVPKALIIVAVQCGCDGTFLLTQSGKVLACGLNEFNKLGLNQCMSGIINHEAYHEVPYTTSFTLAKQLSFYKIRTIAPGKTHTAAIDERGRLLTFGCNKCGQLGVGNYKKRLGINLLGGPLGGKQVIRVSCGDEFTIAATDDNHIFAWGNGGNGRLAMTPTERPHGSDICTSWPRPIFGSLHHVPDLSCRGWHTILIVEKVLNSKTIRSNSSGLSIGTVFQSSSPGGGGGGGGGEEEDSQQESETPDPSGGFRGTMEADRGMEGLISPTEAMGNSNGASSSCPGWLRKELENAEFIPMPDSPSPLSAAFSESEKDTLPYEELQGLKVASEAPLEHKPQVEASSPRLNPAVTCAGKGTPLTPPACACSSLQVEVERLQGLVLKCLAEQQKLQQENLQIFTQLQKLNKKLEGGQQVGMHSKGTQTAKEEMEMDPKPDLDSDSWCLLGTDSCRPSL
- protocol-notes: radiometric filter-binding kinase assay, Kinase HotSpot
- details: compound 0.5 µM; ATP 10 µM
compounds and their reported residual activity
Write it as a number; the unit % goes unstated.

Request: Which residual activity is reported for this compound? `Cc1cncc2cccc(S(=O)(=O)N3CCCN(C(=O)CN)C[C@H]3C)c12`
Result: 98.6

Request: Also check `COc1ccc(C(=O)Nc2sc3c(c2C(N)=O)CCCC3)cc1OC`
Result: 94.6

Request: Also check `O=C1C(Cl)=C(N2C(=O)CCC2=O)C(=O)c2ccccc21`
Result: 98.3

---

- system-tested: PTK2 (human)
- protocol-notes: radiometric filter-binding kinase assay, Kinase HotSpot
- details: compound 0.5 µM; ATP 10 µM
molecules and their reported residual activity
Write it as a number; the unit % goes unstated.

Observe how each entry below is paired with its result.
# smi, system-tested, observable, unit-text, experimental-result
data = [
    ("COc1ccc2c(c1)c(C1=C(c3c[nH]c4ccccc34)C(=O)NC1=O)cn2CCCN(C)C", "PTK2 (human)", "residual activity", "%", 88.2),
    ("O=C1NC(=O)c2c1c1c3ccccc3[nH]c1n1cncc21", "PTK2 (human)", "residual activity", "%", 56.9),
]

Request: Which residual activity is reported for this molecule? `COc1cc2ncnc(Nc3ccc(OCc4ccccc4)cc3)c2cc1OC`
Result: 105

Request: Also check `COc1ccc2c(c1)/C(=C/c1cnc[nH]1)C(O)=N2`
Result: 87.9

Request: Also check `CCCCc1c(-c2ccc(OC)cc2)[nH]c2nccnc12`
Result: 81.7

---

- system-tested: UniProt Q9UBE8
- Sequence (Q9UBE8 whole entry, looked up): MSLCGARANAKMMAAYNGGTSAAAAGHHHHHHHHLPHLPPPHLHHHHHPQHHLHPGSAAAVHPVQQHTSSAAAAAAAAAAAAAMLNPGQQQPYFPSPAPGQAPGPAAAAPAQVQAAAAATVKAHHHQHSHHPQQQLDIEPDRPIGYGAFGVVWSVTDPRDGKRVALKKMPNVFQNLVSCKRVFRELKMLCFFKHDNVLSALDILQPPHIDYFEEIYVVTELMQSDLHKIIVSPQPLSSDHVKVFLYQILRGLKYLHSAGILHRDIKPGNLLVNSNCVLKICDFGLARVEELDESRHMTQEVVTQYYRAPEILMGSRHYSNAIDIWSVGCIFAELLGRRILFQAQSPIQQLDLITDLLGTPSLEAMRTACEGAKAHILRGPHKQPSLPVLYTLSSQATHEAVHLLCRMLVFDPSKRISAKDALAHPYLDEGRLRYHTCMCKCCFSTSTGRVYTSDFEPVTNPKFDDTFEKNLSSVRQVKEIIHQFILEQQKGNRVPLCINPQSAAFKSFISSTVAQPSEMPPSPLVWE
- protocol-notes: radiometric filter-binding kinase assay, Kinase HotSpot
- details: compound 0.5 µM; ATP 10 µM
molecules and their reported residual activity
Write it as a number; the unit % goes unstated.

Observe how each entry below is paired with its result.
# smi, residual activity [%]
records = [
    ("CN(C)c1ccc(/C=C2\\C(=O)Nc3ccccc32)cc1", 102),
    ("Ic1cccc(CSc2nnc(-c3ccncc3)o2)c1", 107),
    ("COc1cc2ncnc(Nc3ccc(OCc4ccccc4)cc3)c2cc1OC", 96.5),
    ("N#C/C(=C\\c1ccc(O)c(O)c1)C(=O)NCc1ccccc1", 110),
    ("c1ccc2c(-c3ccncc3)c[nH]c2c1", 95.1),
]

Turning now to a further record.
Request: Which residual activity is reported for this molecule? `COc1cc2ncnc(Nc3ccc(Oc4ccccc4)cc3)c2cc1OC`
Result: 100

---

- system-tested: EPHA2 (human)
- protocol-notes: radiometric filter-binding kinase assay, Kinase HotSpot
- details: compound 0.5 µM; ATP 10 µM
compounds and their reported residual activity
Write it as a number; the unit % goes unstated.

# smi, system-tested, observable, experimental-result
rows = [
    ("COc1ccc(Cl)cc1NC(=O)Nc1cc(C)nc2ccccc12", "EPHA2 (human)", "residual activity", 100),
    ("COc1ccc(C(=O)Nc2sc3c(c2C(N)=O)CCCC3)cc1OC", "EPHA2 (human)", "residual activity", 102),
    ("CCCCc1c(-c2ccc(OC)cc2)[nH]c2nccnc12", "EPHA2 (human)", "residual activity", 87.9),
    ("COc1cc2ncnc(Nc3ccc(OCc4ccccc4)cc3)c2cc1OC", "EPHA2 (human)", "residual activity", 106),
    ("Ic1cccc(CSc2nnc(-c3ccncc3)o2)c1", "EPHA2 (human)", "residual activity", 102),
    ("NC(=O)c1cccc(-c2cc(Nc3ccc(OC(F)(F)F)cc3)ncn2)c1", "EPHA2 (human)", "residual activity", 94.9),
    ("O=C1NC(=O)c2c1c1c3ccccc3[nH]c1n1cncc21", "EPHA2 (human)", "residual activity", 102),
    ("CS(=O)(=O)CCNCc1ccc(-c2ccc3ncnc(Nc4ccc(OCc5cccc(F)c5)c(Cl)c4)c3c2)o1", "EPHA2 (human)", "residual activity", 99),
]

Request: Which residual activity is reported for this compound? `N#Cc1c[nH]c2c[nH]/c(=N\Cc3cccnc3)cc2/c1=N\c1ccc(F)c(Cl)c1`
Result: 102

Request: Also check `O=C1C(Cl)=C(N2C(=O)CCC2=O)C(=O)c2ccccc21`
Result: 107

Request: Also check `COc1ccc2c(c1)/C(=C/c1cnc[nH]1)C(O)=N2`
Result: 98.4

Request: Also check `CN(C)CCCn1cc(C2=C(c3c[nH]c4ccccc34)C(=O)NC2=O)c2ccccc21`
Result: 81.8

Request: Also check `CC(C)(C)c1cc(C=C(C#N)C#N)cc(Br)c1O`
Result: 105

Request: Also check `CN(C)S(=O)(=O)c1ccc2c(c1)/C(=C/c1cc3c([nH]1)CCCC3)C(=O)N2`
Result: 96.5

Request: Also check `COc1ccc(S(=O)(=O)N(CCO)c2ccccc2CN(C)C/C=C/c2ccc(Cl)cc2)cc1`
Result: 104

Reference source: the kinase profiling compilation of Christmann-Franck et al. (2016)
